Where do the numbers come from? From patent US6664253B2.

- System: UniProtKB P25103
- Sequence (P25103 whole entry): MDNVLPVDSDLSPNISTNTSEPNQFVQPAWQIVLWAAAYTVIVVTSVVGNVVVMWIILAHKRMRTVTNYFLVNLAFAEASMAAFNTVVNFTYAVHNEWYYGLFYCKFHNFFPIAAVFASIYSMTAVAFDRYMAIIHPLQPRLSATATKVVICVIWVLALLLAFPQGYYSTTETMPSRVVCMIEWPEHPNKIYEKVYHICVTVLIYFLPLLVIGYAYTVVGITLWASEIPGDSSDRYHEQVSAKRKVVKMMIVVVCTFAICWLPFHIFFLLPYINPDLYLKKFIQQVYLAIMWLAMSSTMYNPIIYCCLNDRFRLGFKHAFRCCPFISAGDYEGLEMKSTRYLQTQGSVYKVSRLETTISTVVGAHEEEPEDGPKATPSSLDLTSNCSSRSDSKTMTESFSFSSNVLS
Field 'label' (enum: Criterion met / Criterion not met). Set to Criterion met when Ki is strictly under 4 nM; else Criterion not met.

In: Consider the molecule `CN(CCc1cc(C(F)(F)F)cc(C(F)(F)F)c1)C(=O)[C@H](c1ccccc1)N1CCC(N2C(=O)COC2=O)CC1` . Is its Ki strictly less than 4 nM?
Out: Criterion met

In: is_below(Ki, 4 nM) for CC(=O)N1CCN(C2CCN(C(C(=O)NCc3cc(C(F)(F)F)cc(C(F)(F)F)c3)c3ccccc3)CC2)C1=O (stereo not drawn) [Example B-6, reference compound] ?
Out: Criterion not met

In: Field: below-cutoff. Rule: recorded Ki strictly less than 4 nM. Subject: `CN(CCc1cc(C(F)(F)F)cc(C(F)(F)F)c1)C(=O)[C@H](c1ccccc1)N1CCC(N2CCC(=O)N(C)C2=O)CC1`
Out: Criterion met

In: Ki strictly < 4 nM for this molecule? CNC(=O)NC1CCN(C(C(=O)N(C)CCc2cc(C(F)(F)F)cc(C(F)(F)F)c2)c2ccccc2)CC1 (stereo not drawn)
Out: Criterion met

In: Ki under 4 nM? Item: `CN(CCc1cc(C(F)(F)F)cc(C(F)(F)F)c1)C(=O)[C@H](c1ccccc1)N1CCC(N2CCNC2=O)CC1`
Out: Criterion met

In: Consider O=C(Nc1ccccc1)NC1CCN(C(C(=O)NCc2cc(C(F)(F)F)cc(C(F)(F)F)c2)c2ccccc2)CC1 (stereo not drawn) [Example B-7, reference compound] . Does its Ki lie strictly below 4 nM?
Out: Criterion not met
